Molecular target: human TACE (Homo sapiens (Human), UniProt P78536)
Sequence (P78536 whole entry, looked up, change not shown): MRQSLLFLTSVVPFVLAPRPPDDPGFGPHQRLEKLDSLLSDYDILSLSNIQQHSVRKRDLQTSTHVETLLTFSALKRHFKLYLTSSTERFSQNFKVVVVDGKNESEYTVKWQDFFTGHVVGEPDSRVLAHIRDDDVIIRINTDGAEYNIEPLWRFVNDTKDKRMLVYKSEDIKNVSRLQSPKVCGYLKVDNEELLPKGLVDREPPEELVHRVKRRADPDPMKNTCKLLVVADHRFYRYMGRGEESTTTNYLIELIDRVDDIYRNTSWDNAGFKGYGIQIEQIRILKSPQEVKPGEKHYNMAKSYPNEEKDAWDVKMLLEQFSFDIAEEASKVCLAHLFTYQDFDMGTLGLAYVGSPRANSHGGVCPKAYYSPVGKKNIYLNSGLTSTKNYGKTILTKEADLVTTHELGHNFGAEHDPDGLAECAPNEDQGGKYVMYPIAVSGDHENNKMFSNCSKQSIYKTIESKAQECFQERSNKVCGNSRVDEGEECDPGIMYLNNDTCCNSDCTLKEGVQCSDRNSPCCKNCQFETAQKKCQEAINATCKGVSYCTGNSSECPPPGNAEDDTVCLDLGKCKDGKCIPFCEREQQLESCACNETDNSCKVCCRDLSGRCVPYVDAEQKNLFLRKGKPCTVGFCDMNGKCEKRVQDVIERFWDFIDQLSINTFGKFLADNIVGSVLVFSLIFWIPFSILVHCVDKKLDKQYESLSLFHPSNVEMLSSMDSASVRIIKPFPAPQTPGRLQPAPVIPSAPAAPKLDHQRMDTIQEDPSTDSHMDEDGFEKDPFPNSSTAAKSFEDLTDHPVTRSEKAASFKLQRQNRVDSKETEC
Conditions: read-out: TACE potency IC50
Overview of recorded IC50 for various molecules
MEASURED QUANTITY: IC50

In [3]: df
Out[3]:
                                    molecule        val
 0  CC1(CCC(=O)N2CCN(c3cncc(Br)c3)CC2)NC(=O)NC1=O (centres unmarked)     > 4 µM
 1  Cc1ccccc1N1CCN(C(=O)CCC2(c3cccnc3)NC(=O)NC2=O)CC1 (centres unmarked)    3.14 µM
 2  Cc1cccc(N2CCN(C(=O)CCC3(C)NC(=O)NC3=O)CC2)c1C (centres unmarked)    > 20 µM
 3  C[C@H]1CN(C(=O)CC[C@@]2(C3CC3)NC(=O)NC2=O)CCN1c1cc(F)cc(-c2cn[nH]c2)c1     > 4 µM
 4  Cc1c(Cl)cccc1N1CCN(C(=O)CCC2(c3cccnc3)NC(=O)NC2=O)CC1 (centres unmarked)     3.4 µM
 5  O=C1NC(=O)C(CCC(=O)N2CCN(c3cccc(Cl)c3)CC2)(CN2CCOCC2)N1 (centres unmarked)    > 20 µM
 6  CC(CC1(C2CNC2)NC(=O)NC1=O)C(=O)N1CCN(c2cc(Cl)cc(Cl)c2)CC1 (centres unmarked)  > 3.93 µM
 7  C[C@H]1CN(C(=O)CCC2(C)NC(=O)NC2=O)CCN1c1cccc(F)c1 (some centres unmarked)    > 20 µM
 8  Cc1c(Cl)cc(Cl)cc1N1CCN(C(=O)CCC2(C3CC3)NC(=O)NC2=O)C[C@@H]1C (some centres unmarked)    1.99 µM
 9  Cc1ccc(C2(CCC(=O)N3CCN(c4cc(Cl)cc(Cl)c4)[C@@H](C)C3)NC(=O)NC2=O)cn1 (some centres unmarked)    2.23 µM
10  CC1CN(C(=O)CCC2(c3cccnc3)NC(=O)NC2=O)CCN1c1ccccc1 (centres unmarked)    > 20 µM
11  Cc1cccc(C2(CCC(=O)N3CCN(c4cc(Cl)cc(Cl)c4)[C@@H](C)C3)NC(=O)NC2=O)n1 (some centres unmarked)    1.32 µM
12  C[C@H]1CN(C(=O)CCC2(C3CC3)NC(=O)NC2=O)CCN1c1cc(Cl)nc(Cl)c1 (some centres unmarked)    > 20 µM
13  C[C@@H](C[C@@]1(C)NC(=O)NC1=O)C(=O)N1CCN(c2ccc(F)c(Cl)c2)[C@@H](C)C1     > 4 µM
14  C[C@H]1CN(C(=O)CCC2(C3CC3)NC(=O)NC2=O)CCN1c1ccccc1 (some centres unmarked)    > 20 µM
15  C[C@H]1CN(C(=O)CCC2(c3cccnc3)NC(=O)NC2=O)CCN1c1ccc(Cl)c(Cl)c1 (some centres unmarked)    3.18 µM
16  C[C@H]1CN(C(=O)CCC2(c3ccccc3)NC(=O)NC2=O)CCN1c1ccccc1 (some centres unmarked)    > 20 µM
17  CC(CC1(C)NC(=O)NC1=O)C(=O)N1CCN(c2cc(Cl)cc(Cl)c2)[C@@H](C)C1 (some centres unmarked)    2.98 µM
18  CC1(CCC(=O)N2CCN(c3cc(F)cc(Cl)c3)CC2)NC(=O)NC1=O (centres unmarked)     > 4 µM
19  C[C@H]1CN(C(=O)CCC2(c3ccccn3)NC(=O)NC2=O)CCN1c1cc(Cl)cc(Cl)c1 (some centres unmarked)    1.74 µM
20  Cc1ccc(Cl)cc1N1CCN(C(=O)CCC2(CN(C)C)NC(=O)NC2=O)CC1 (centres unmarked)     > 4 µM
21  COC(CC1(C)NC(=O)NC1=O)C(=O)N1CCN(c2cc(F)cc(Cl)c2)[C@@H](C)C1 (some centres unmarked)    > 20 µM
22  CC(CC1(c2ccccn2)NC(=O)NC1=O)C(=O)N1CCN(c2ccc(F)c(F)c2)[C@@H](C)C1 (some centres unmarked)     > 4 µM
23  O=C1NC(=O)C(CCC(=O)N2CCN(c3cccc(Cl)c3)CC2)(c2cccnc2)N1 (centres unmarked)    3.19 µM
24  C[C@H]1CN(C(=O)CCC2(c3cccnc3)NC(=O)NC2=O)CCN1c1cc(F)cc(Cl)c1 (some centres unmarked)     > 4 µM
25  CC(CC1(c2ccccn2)NC(=O)NC1=O)C(=O)N1CCN(c2cc(Cl)cc(Cl)c2)CC1 (centres unmarked) [compound 434]   0.106 µM
26  Cc1ccc(N2CCN(C(=O)CCC3(C4CC4)NC(=O)NC3=O)C[C@@H]2C)cc1Cl (some centres unmarked)     > 4 µM
27  C[C@H]1CN(C(=O)CCC2(C3CC3)NC(=O)NC2=O)CCN1c1cncnc1 (some centres unmarked)    > 20 µM
28  Cc1ccccc1N1CCN(C(=O)CCC2(C)NC(=O)NC2=O)CC1 (centres unmarked)     > 4 µM
29  O=C1NC(=O)C(CCC(=O)N2CCN(c3cccc(F)c3)CC2)(c2cccnc2)N1 (centres unmarked)     > 4 µM
30  CC(CC1(CCN)NC(=O)NC1=O)C(=O)N1CCN(c2cc(Cl)cc(Cl)c2)CC1 (centres unmarked)    1.44 µM
31  C[C@H]1CN(C(=O)CCC2(C3CC3)NC(=O)NC2=O)CCN1c1cnc2ccn(C)c2c1 (some centres unmarked)    > 20 µM

----------
Target: human MMP13 (Homo sapiens (Human), UniProt P45452)
Conditions: read-out: hMMP-13 potency IC50
Overview of recorded IC50 for various molecules
MEASURED QUANTITY: IC50 (nM)

>>> print(df.to_string())
                                   molecule  measured_quantity  inequality_sign    val
0  CC(CC1(C2CC2)NC(=O)NC1=O)C(=O)N1CCN(c2cccc(F)c2)[C@@H](C)C1 (some centres unmarked)               IC50                =   3060
1  CC(CC1(C)NC(=O)NC1=O)C(=O)N1CCN(c2ccc(F)c(F)c2)CC1 (centres unmarked)               IC50                =    377
2  COc1ccc(C2(CCC(=O)N3CCN(c4cc(Cl)ccc4C)CC3)NC(=O)NC2=O)cc1 (centres unmarked)               IC50                >  20000
3  C[C@H]1CN(C(=O)CCC2(C3CC3)NC(=O)NC2=O)CCN1c1cccc(Cl)c1 (some centres unmarked)               IC50                >  20000
4  CC1(CCC(=O)N2CCN(c3cncc(Br)c3)CC2)NC(=O)NC1=O (centres unmarked)               IC50                >  20000
5  O=C1NC(=O)C(CCC(=O)N2CCN(c3cccc(F)c3)CC2)(c2ccccn2)N1 (centres unmarked)               IC50                =   2000
6  CS(=O)(=O)c1ccc(C2(CCC(=O)N3CCN(c4cccc(Cl)c4)CC3)NC(=O)NC2=O)cc1 (centres unmarked)               IC50                =   1280
7  COCC1(CC(C)C(=O)N2CCN(c3cc(Cl)cc(Cl)c3C)[C@@H](C)C2)NC(=O)NC1=O (some centres unmarked)               IC50                >  20000

----------
Overview of recorded pIC50 for various molecules
Biological target: human ADAMTS-5 (Homo sapiens (Human), UniProt Q9UNA0)
Sequence (Q9UNA0 262-930): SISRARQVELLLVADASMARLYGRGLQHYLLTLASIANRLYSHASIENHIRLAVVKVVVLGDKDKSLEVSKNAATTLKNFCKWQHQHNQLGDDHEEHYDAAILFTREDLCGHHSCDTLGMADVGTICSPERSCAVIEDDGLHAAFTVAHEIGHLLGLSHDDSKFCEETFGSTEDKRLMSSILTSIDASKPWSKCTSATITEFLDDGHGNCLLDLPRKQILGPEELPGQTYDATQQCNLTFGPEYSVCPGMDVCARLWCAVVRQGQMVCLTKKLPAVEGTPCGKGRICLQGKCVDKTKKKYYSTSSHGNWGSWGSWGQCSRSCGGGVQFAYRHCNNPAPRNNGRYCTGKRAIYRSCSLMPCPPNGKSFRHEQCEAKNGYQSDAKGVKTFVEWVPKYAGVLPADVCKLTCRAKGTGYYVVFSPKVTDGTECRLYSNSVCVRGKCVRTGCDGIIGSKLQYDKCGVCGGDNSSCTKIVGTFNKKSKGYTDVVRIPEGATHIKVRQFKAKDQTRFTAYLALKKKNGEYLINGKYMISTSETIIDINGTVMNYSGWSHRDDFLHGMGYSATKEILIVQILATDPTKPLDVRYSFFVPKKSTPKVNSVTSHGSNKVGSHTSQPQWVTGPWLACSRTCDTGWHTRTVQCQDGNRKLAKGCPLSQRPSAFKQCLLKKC
Conditions: read-out: hADAMTS-5 potency IC50
pIC50: −log10 of the molar value.
MEASURED QUANTITY: pIC50

>>> df
                                   molecule  measured_quantity  inequality_sign   val
0  Cc1c(Cl)cccc1N1CCN(C(=O)CCC2(C)NC(=O)NC2=O)CC1 (centres unmarked) [compound 18]              pIC50                =  6.17
1  Cc1ccc(C2(CCC(=O)N3CCN(c4cccc(Cl)c4)CC3)NC(=O)NC2=O)cc1 (centres unmarked) [compound 76]              pIC50                =  7.04
2  CC1(CCC(=O)N2CCN(c3cc(F)cc(Cl)c3)CC2)NC(=O)NC1=O (centres unmarked) [compound 117]              pIC50                =  6.68
3  O=C1NC(=O)C(CCC(=O)N2CCN(c3ccc(F)c(F)c3)CC2)(C2CC2)N1 (centres unmarked) [compound 113]              pIC50                =  6.98
4  Cc1cc(F)c(F)cc1N1CCN(C(=O)CCC2(C)NC(=O)NC2=O)CC1 (centres unmarked) [compound 94]              pIC50                =  5.67
5  CC1(CCC(=O)N2CCN(c3cccnc3)CC2)NC(=O)NC1=O (centres unmarked) [compound 43]              pIC50                =  5.82
6  CN(C)CCC1(CCC(=O)N2CCN(c3cc(Cl)cc(Cl)c3)CC2)NC(=O)NC1=O (centres unmarked) [compound 58]              pIC50                <  4.70
7  Cc1cccc(C)c1N1CCN(C(=O)CCC2(c3ccccc3)NC(=O)NC2=O)CC1 (centres unmarked) [compound 22]              pIC50                <  5.42
